Listed below: efficacy in % values for each entry.
Tested on: Venturia inaequalis
Test: Venturia test (apple)/protective
Format: in vivo
Conditions: 100 ppm active compound, protective, evaluation 10 days after inoculation

- compound: "O=C(Nc1cc(-c2c(-c3ccccc3)nn3c2CCCC3)ccn1)c1ccsc1"
  efficacy in %, %: 74
- compound: "O=C(Nc1cc(-c2c(-c3ccc(F)cc3)nn3c2CCCC3)ccn1)C1CC1"
  efficacy in %, %: 99
- compound: "O=C(Nc1cc(-c2c(-c3ccc(F)cc3)nn3c2CCCC3)ccn1)c1ccccc1"
  efficacy in %, %: 90
- compound: "CC(C)CC(=O)Nc1cc(-c2c(-c3ccccc3)nn3c2CCCC3)ccn1"
  efficacy in %, %: 100
- compound: "O=C(Cc1ccccc1)Nc1cc(-c2c(-c3ccc(F)cc3)nn3c2CCCC3)ccn1"
  efficacy in %, %: 95
- compound: "CCC(=O)Nc1cc(-c2c(-c3ccsc3)nn3c2CCCC3)ccn1"
  efficacy in %, %: 97
- compound: "CCC(=O)Nc1cc(-c2c(-c3ccc(F)cc3)nn3c2CCOC3(C)C)ccn1"
  efficacy in %, %: 95
- compound: "C[C@H](O)C(=O)Nc1cc(-c2c(-c3ccccc3)nn3c2CCCC3)ccn1"
  efficacy in %, %: 94
- compound: "CC(C)CC(=O)Nc1cc(-c2c(-c3ccsc3)nn3c2CCCC3)ccn1"
  efficacy in %, %: 99

----------
Tested on: Pyrenophora teres
Assay: Pyrenophora teres test (barley)/protective
Assay type: in vivo
Conditions: in vivo

- compound: "CC(=O)Nc1cc(-c2c(-c3ccc(F)cc3)nn3c2CCOC3(C)C)ccn1 [Example 90]"
  units-text: "%"
  efficacy in %: 95
- compound: "COC(=O)Nc1cc(-c2c(-c3ccsc3)nn3c2CCCC3)ccn1 [Example 67]"
  units-text: "%"
  efficacy in %: 95
- compound: "Cc1ccc(-c2nn3c(c2-c2ccncc2)CCC3)cc1 [Example 41]"
  units-text: "%"
  efficacy in %: 95
- compound: "CC(C)C(=O)Nc1cc(-c2c(-c3ccsc3)nn3c2CCCC3)ccn1 [Example 63]"
  units-text: "%"
  efficacy in %: 95
- compound: "Fc1cccc(-c2nn3c(c2-c2ccncc2)CCC3)c1 [Example 44]"
  units-text: "%"
  efficacy in %: 90
- compound: "CC(=O)Nc1cc(-c2c(-c3ccccc3)nn3c2CCCC3)ccn1 [Example 19]"
  units-text: "%"
  efficacy in %: 100
- compound: "CC(C)C(=O)Nc1cc(-c2c(-c3ccc(F)cc3)nn3c2CCOC3(C)C)ccn1 [Example 83]"
  units-text: "%"
  efficacy in %: 94
- compound: "CCC(=O)Nc1cc(-c2c(-c3ccc(F)cc3)nn3c2CCOC3)ccn1 [Example 95]"
  units-text: "%"
  efficacy in %: 100
- compound: "CC(=O)Nc1cc(-c2c(-c3ccc(F)cc3)nn3c2CCCC3)ccn1 [Example 15]"
  units-text: "%"
  efficacy in %: 100
- compound: "O=C(Nc1cc(-c2c(-c3ccc(F)cc3)nn3c2CCCC3)ccn1)C1CC1 [Example 20]"
  units-text: "%"
  efficacy in %: 100
- compound: "CC(=O)Nc1cc(-c2c(-c3ccc(F)cc3)nn3c2CCCCC3)ccn1 [Example 99]"
  units-text: "%"
  efficacy in %: 95
- compound: "CC(C)C(=O)Nc1cc(-c2c(-c3ccc(F)cc3)nn3c2CCCCC3)ccn1 [Example 97]"
  units-text: "%"
  efficacy in %: 100
- compound: "O=C(Nc1cc(-c2c(-c3ccc(F)cc3)nn3c2CCCC3)ccn1)c1ccccc1 [Example 32]"
  units-text: "%"
  efficacy in %: 78
- compound: "CN(C)C=Nc1cc(-c2c(-c3ccc(F)cc3)nn3c2CCCC3)ccn1 [Example 39]"
  units-text: "%"
  efficacy in %: 95
- compound: "CN(C)C=Nc1cc(-c2c(-c3ccccc3)nn3c2CCCC3)ccn1 [Example 38]"
  units-text: "%"
  efficacy in %: 95
- compound: "COCC(=O)Nc1cc(-c2c(-c3ccc(F)cc3)nn3c2CCCC3)ccn1 [Example 22]"
  units-text: "%"
  efficacy in %: 95
- compound: "CC(=O)Nc1cc(-c2c(-c3ccsc3)nn3c2CCCC3)ccn1 [Example 58]"
  units-text: "%"
  efficacy in %: 90
- compound: "CC(=O)Nc1cc(-c2c(-c3ccc(F)cc3)nn3c2CCOC3)ccn1 [Example 106]"
  units-text: "%"
  efficacy in %: 95
- compound: "O=C(Cc1ccccc1)Nc1cc(-c2c(-c3ccc(F)cc3)nn3c2CCCCC3)ccn1 [Example 98]"
  units-text: "%"
  efficacy in %: 95
- compound: "CC(C)(O)C(=O)Nc1cc(-c2c(-c3ccc(F)cc3)nn3c2CCCC3)ccn1 [Example 55]"
  units-text: "%"
  efficacy in %: 95
- compound: "COCC(=O)Nc1cc(-c2c(-c3ccccc3)nn3c2CCCC3)ccn1 [Example 23]"
  units-text: "%"
  efficacy in %: 95
- compound: "CC1CC1C(=O)Nc1cc(-c2c(-c3ccc(F)cc3)nn3c2CCOC3)ccn1 (centres unmarked) [Example 108]"
  units-text: "%"
  efficacy in %: 95
- compound: "O=C(CC1CC1)Nc1cc(-c2c(-c3ccc(F)cc3)nn3c2COCC3)ccn1 [Example 113]"
  units-text: "%"
  efficacy in %: 94
- compound: "CCC(=O)Nc1cc(-c2c(-c3ccccc3)nn3c2COCC3)ccn1 [Example 100]"
  units-text: "%"
  efficacy in %: 100
- compound: "CC(C)C(=O)Nc1cc(-c2c(-c3ccc(F)cc3)nn3c2CCOC3)ccn1 [Example 91]"
  units-text: "%"
  efficacy in %: 95
- compound: "COCC(=O)Nc1cc(-c2c(-c3ccc(F)cc3)nn3c2CCOC3(C)C)ccn1 [Example 82]"
  units-text: "%"
  efficacy in %: 94
- compound: "CC1CCc2c(-c3ccncc3F)c(-c3ccc(F)cc3)nn21 (centres unmarked) [Example 117]"
  units-text: "%"
  efficacy in %: 100
- compound: "CC(C)C(=O)Nc1cc(-c2c(-c3ccc(F)cc3)nn3c2COCC3)ccn1 [Example 92]"
  units-text: "%"
  efficacy in %: 95
- compound: "COC1CCCn2nc(-c3ccc(F)cc3)c(-c3ccncc3)c21 (centres unmarked) [Example 85]"
  units-text: "%"
  efficacy in %: 100

----------
Test system: DON/AcDON production
Experiment: microbe, parasite or virus in culture
Assay type: cell-based, Fusarium graminearum
Settings: 7 days at 28° C.
Parameter % inhibition of DON/AcDON at 50 μM: see the listing below.

- compound: "O=C(Nc1cc(-c2c(-c3ccccc3)nn3c2CCCC3)ccn1)c1ccccc1"
  study-target: "DON/AcDON production"
  % inhibition of DON/AcDON at 50 μM (%): 99
- compound: "Cc1cc(-c2c(-c3ccc(F)cc3)nn3c2CCCC3)ccn1"
  study-target: "DON/AcDON production"
  % inhibition of DON/AcDON at 50 μM (%): 99
- compound: "Fc1ccc(-c2nn3c(c2-c2ccnc(F)c2)CCC3)cc1"
  study-target: "DON/AcDON production"
  % inhibition of DON/AcDON at 50 μM (%): 100
- compound: "O=C(Nc1cc(-c2c(-c3ccc(F)cc3)nn3c2CCCC3)ccn1)C1CC1"
  study-target: "DON/AcDON production"
  % inhibition of DON/AcDON at 50 μM (%): 100
- compound: "COCC(=O)Nc1cc(-c2c(-c3ccc(F)cc3)nn3c2CCCC3)ccn1"
  study-target: "DON/AcDON production"
  % inhibition of DON/AcDON at 50 μM (%): 100
- compound: "CC(C)Nc1cc(-c2c(-c3ccc(F)cc3)nn3c2CCC3)ccn1"
  study-target: "DON/AcDON production"
  % inhibition of DON/AcDON at 50 μM (%): 99
- compound: "Fc1ccc(-c2nn3c(c2-c2ccncc2)CCCCC3)cc1"
  study-target: "DON/AcDON production"
  % inhibition of DON/AcDON at 50 μM (%): 98
- compound: "CC(C)C(=O)Nc1cc(-c2c(-c3ccccc3)nn3c2CCCC3)ccn1"
  study-target: "DON/AcDON production"
  % inhibition of DON/AcDON at 50 μM (%): 99
- compound: "CCC(=O)Nc1cc(-c2c(-c3ccccc3)nn3c2CCCC3)ccn1"
  study-target: "DON/AcDON production"
  % inhibition of DON/AcDON at 50 μM (%): 99

----------
Tested on: Pyrenophora teres
Assay: Pyrenophora teres test (barley)/protective
Format: in vivo
Settings: in vivo

- molecule: "O=C(Nc1cc(-c2c(-c3cccs3)nn3c2CCCC3)ccn1)C1CC1"
  units-text: "%"
  efficacy in %: 95
- molecule: "O=C(Nc1cc(-c2c(-c3ccc(F)cc3)nn3c2COCC3)ccn1)C1CC1"
  units-text: "%"
  efficacy in %: 100
- molecule: "Fc1ccc(-c2nn3c(c2-c2ccnc(F)c2)CCC3)cc1"
  units-text: "%"
  efficacy in %: 95
- molecule: "O=C(Cc1ccccc1)Nc1cc(-c2c(-c3ccccc3)nn3c2CCCC3)ccn1"
  units-text: "%"
  efficacy in %: 78
- molecule: "CCC(=O)Nc1cc(-c2c(-c3ccc(F)cc3)nn3c2COCC3)ccn1"
  units-text: "%"
  efficacy in %: 95
- molecule: "Nc1cc(-c2c(-c3ccc(F)cc3)nn3c2CCOC3)ccn1"
  units-text: "%"
  efficacy in %: 90
- molecule: "Cc1cc(-c2c(-c3ccc(F)cc3)nn3c2CCCC3)ccn1"
  units-text: "%"
  efficacy in %: 70
- molecule: "CCC(=O)Nc1cc(-c2c(-c3ccc(F)cc3)nn3c2CCC3)ccn1"
  units-text: "%"
  efficacy in %: 95
- molecule: "CC(C)(O)C(=O)Nc1cc(-c2c(-c3ccccc3)nn3c2CCCC3)ccn1"
  units-text: "%"
  efficacy in %: 95
- molecule: "O=C(Nc1cc(-c2c(-c3ccc(F)cc3)nn3c2CCOC3)ccn1)C1CC1"
  units-text: "%"
  efficacy in %: 95
- molecule: "CC1CCc2c(-c3ccnc(NC(=O)C4CC4)c3)c(-c3ccc(F)cc3)nn21 (stereo not drawn)"
  units-text: "%"
  efficacy in %: 95
- molecule: "C[C@H](O)C(=O)Nc1cc(-c2c(-c3ccccc3)nn3c2CCCC3)ccn1"
  units-text: "%"
  efficacy in %: 100
- molecule: "O=C(Nc1cc(-c2c(-c3ccccc3)nn3c2CCCC3)ccn1)c1ccccc1"
  units-text: "%"
  efficacy in %: 78
- molecule: "CC1CC1C(=O)Nc1cc(-c2c(-c3ccc(F)cc3)nn3c2CCOC3(C)C)ccn1 (stereo not drawn)"
  units-text: "%"
  efficacy in %: 95
- molecule: "CC(C)CC(=O)Nc1cc(-c2c(-c3ccccc3)nn3c2CCCC3)ccn1"
  units-text: "%"
  efficacy in %: 100
- molecule: "O=CNc1cc(-c2c(-c3ccccc3)nn3c2CCCC3)ccn1"
  units-text: "%"
  efficacy in %: 100
- molecule: "O=C(Cc1ccccc1)Nc1cc(-c2c(-c3ccc(F)cc3)nn3c2CCCC3)ccn1"
  units-text: "%"
  efficacy in %: 94
- molecule: "CC1(C)OCCc2c(-c3ccnc(NC(=O)C4CCC4)c3)c(-c3ccc(F)cc3)nn21"
  units-text: "%"
  efficacy in %: 95
